target: α4β3N-Flag-δ GABAA receptor reconstituted into CHAPS/lipid micelles (Homo sapiens, UniProt O14764+P28472+P48169); construct: DDM solubilization, anti-Flag beads, elution with Flag peptide into CHAPS/lipid; test: [3H]muscimol binding to purified receptor reconstituted into CHAPS/lipid micelles; settings: 2 nM [3H]muscimol, CHAPS/PC:PS:Cholesterol micelles; read-out: EC50 of modulation of [3H]muscimol binding
Sequence (P48169 36-554): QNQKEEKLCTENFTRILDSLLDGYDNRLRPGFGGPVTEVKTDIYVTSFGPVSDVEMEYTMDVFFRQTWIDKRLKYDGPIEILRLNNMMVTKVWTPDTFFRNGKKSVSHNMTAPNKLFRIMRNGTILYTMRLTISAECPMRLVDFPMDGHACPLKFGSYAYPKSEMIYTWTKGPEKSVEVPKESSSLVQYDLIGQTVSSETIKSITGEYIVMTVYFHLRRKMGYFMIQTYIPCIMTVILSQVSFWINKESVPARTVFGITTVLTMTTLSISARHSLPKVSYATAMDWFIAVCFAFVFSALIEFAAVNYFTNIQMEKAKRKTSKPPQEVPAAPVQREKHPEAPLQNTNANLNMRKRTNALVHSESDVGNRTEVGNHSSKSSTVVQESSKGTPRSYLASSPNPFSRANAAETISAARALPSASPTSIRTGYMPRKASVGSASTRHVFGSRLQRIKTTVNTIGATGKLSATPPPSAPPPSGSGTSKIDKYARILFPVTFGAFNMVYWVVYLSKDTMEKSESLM
Sequence (P28472 26-473 isoform P28472-2 limits assumed): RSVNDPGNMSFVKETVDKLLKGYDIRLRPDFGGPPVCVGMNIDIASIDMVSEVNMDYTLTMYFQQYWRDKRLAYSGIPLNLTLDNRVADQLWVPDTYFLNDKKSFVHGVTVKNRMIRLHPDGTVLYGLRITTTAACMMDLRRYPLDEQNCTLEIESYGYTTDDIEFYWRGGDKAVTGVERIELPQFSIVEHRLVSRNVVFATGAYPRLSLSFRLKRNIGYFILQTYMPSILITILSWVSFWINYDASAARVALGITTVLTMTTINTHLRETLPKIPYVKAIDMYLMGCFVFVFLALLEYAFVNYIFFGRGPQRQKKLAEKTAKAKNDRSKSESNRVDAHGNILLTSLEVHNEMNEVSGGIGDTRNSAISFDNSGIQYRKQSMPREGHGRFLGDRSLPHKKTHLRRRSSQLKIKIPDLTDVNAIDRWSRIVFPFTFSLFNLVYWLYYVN
Sequence (O14764 25-452): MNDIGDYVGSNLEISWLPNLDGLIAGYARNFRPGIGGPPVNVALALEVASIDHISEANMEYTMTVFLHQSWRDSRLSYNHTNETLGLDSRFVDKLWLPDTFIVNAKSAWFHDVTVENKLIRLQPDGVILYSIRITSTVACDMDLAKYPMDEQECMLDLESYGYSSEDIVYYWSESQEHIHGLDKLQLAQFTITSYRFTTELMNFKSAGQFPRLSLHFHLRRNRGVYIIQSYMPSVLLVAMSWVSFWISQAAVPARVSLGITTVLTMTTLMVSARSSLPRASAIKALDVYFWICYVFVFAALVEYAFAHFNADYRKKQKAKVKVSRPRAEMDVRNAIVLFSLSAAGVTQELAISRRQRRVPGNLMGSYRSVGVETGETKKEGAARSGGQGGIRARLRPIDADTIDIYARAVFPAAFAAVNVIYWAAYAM
pEC50: −log10 of the molar value.

>  <smilesStructure>
O=C(Nc1c(-c2cccs2)nc2ccccn12)c1ccc(Cl)cc1

>  <pEC50>
5.64

$$$$

All figures here come from paper PMC5774841.
